Test: yeast display, Sf9 membrane polyspecificity reagent, FACS + sequencing; frameworks hold sequencing errors
readout: polyreactivity (PSR sort gate)

QVQLVESGGGLVQAGGSLRLICAASGSIFYVYAMGWYRQSPGKERELDAAINTSGGSTFYADSVKGRFTISRDNAKNTVYLQMNSLKPEDTAVYYCAAERYRYRSTDTMGYWGQGTQVTVSS = low polyreactivity
QVQHVESGGGLVQAGGSLRLSCAASGFTFHRYAMGWYRQAAGKERELVARISRSAGSTYYADSVKGRFTISRDNAKNTVYLQMNSLKPEDTAVYYCAAAQRRYGRGYGYWGQGTQVTVSS = high polyreactivity
QVQLVESGGGLVQAGCSLRLSCAASGATPQNAMGWYRQAPGKERELVAAISKRGGSTYYADSVKGRFTISRDNAKNTVYLQMISLKPEDTAVYYCAKSGRNYYDDDYWGQGTQVTVSS = high polyreactivity
QVLLQESGGGLVQAGGSLRLSCAAIGTISTDIRMGWYRLAPGKEREFVASIDGCSTTYYADSVTGRFTISRDNAKNTVYLQMNSLKPEDTAMFYCAAREATEFYLYYWGQGTQVTVSS = low polyreactivity
QVQLGESGGGLVQAGGSLRLSCAASGGIFGKYAMGWYRQAPGKERELVAAISGGSRTNYADSVKGRFTISRDNAKNTVYLQMNSLKPEDTAVYYCAARYAYSAQRLYYWGQGTQVTVSS = high polyreactivity
QVQLVESGGGLVQAGGSLRLSCAASGSTFYPNAMGWYRQAPGKERELVAAISWSGGRTYYADSVKGRFTISRDNAKNTVYLQMNSLKPEDTAVYYCNAARYPSSWYYKLDYWGQGTQVTVSS = high polyreactivity
QVQLVESGGGLVQAGGSLRLSCAASGSTFPRNAMGWYRQAPGKERELVAAISYSGGRTYYADSVKGRLRISRDNAKNTVYLQMNSLKPDDTAVYYCAASPGVGDSRYYYWGQGTQVTVSS = high polyreactivity
QVQLVESGGGLVQAGGSLRLSCAASGYIFDVNAMGWSRPAPGKESELVASISRSGASTYYADSVKGRFTISRDNAKNTVYLQMNSLQPEDTAVYYCNAVSRYCEYDSWGQGTQVTVSS = high polyreactivity

Q: Input QVQLVESGGGLVQAGGSLRLSCAASGSTFPLYAMGWYRQAPGKERELVAAISSSGGSTYYADSVKGRFTISRDNAKNTVYLQMNNLKPEDTAVYYCAAAPTSYSGYGYWGQGTQVTVSS , output reported polyreactivity (PSR sort gate).
Ans: low polyreactivity

Q: Please give measured polyreactivity (PSR sort gate) of the following entry: QVQLVESGGGLVQAGGSLRLSCAAYGITFRVNPMGWYRQAPGKERELVAAISRGGGSTSYADSVMGRFTISRDNAKNTFYLQMNSLKPEDTAVYFCAREPLAYYVARYDYWGQGTQVTVSS
Ans: high polyreactivity

Q: Give a short answer stating reported polyreactivity (PSR sort gate) for QVQLVESGGGLVQAGGSLRLSCAASGRIFGLNTMGWYRQAPGKERELVAAITSSAGSTYYADSVKGRFTISRDNAKNTVYLQMNSLKPEDTAVYYCAARVSYLGSFTSQRYYYWGQGTQVTVSS .
Ans: high polyreactivity

###

Experiment: yeast display, Sf9 membrane polyspecificity reagent, FACS + sequencing; frameworks hold sequencing errors
readout: polyreactivity (PSR sort gate)

Below, 4 sequences whose answers are already recorded.
QVQLVESGGGLVQAGGSLRLSCAASGIIFGQYAMGGYIQAPGKEREFVSAISRSGGSTNYADSVKGLFTISRDNAKNTVYLQMNSLKPEDTAVYYCNKRARHTGDFVWGHGYWGQGTQVTVSS = low polyreactivity
QVQLVESGGGLVQAGGSLRLSCAASGSTIERYAMGWYRPAPGKERELVAAIRWSGGSTYYADSVKGRFTISRDNAKNTVYLQMNSLKPEDTAVYYCAASRSNADWFDSLGQGTQVTVSS = high polyreactivity
QVQLVESGGGIVQAGGSLRLSCAASGRTFSSYARGWYRQAPGKERELVAAISSDGVDTYYADSVKGRFTISRDNAKNTVYLQMNSLKPEDTAVYYCNAEEGGPEYAYSYYRMDYWGQGTQVTVSS = low polyreactivity
QFQLVESGGGLVQAGGSLRLSCAASGSIITPYAMGWYRPAPGKERELVAAISGRGGSTYYADSVKGRFTISRDNAKNTVYLQMNSLKPEDTAVYYCAARQYFRWYGWSMDYWGQGTQVTVSS = high polyreactivity

Now consider the entry below.
Q: Fill in reported polyreactivity (PSR sort gate) for this entry: QVQLVESGGGLVQAGGSLRLSCAASGRTFFYNGMVWYIQAPGKQRELVAAISGSGSRTYYADSVKGRFTISRDNAKNTVYLQMNSLKPEDTAVYYCAATRVISHYRFDYWGQGTEVTVSS
Ans: high polyreactivity

###

Assay: yeast display, Sf9 membrane polyspecificity reagent, FACS + sequencing; frameworks hold sequencing errors
readout: polyreactivity (PSR sort gate)

QFHLVESGGGLVQAGGSLRLSCAASGSIFNEYAMGWYRQAPGKERELVAAITNISGRKYYADSVKGRFTISRDNAKNTVYLQMNSLKPEDTAVYYCNARRTYTRPYIHSVYNYYYWGQGTEVTVSS = high polyreactivity
QVQLVESGGGLVQAGGSLRLSCAASGSIFVGYAMGWYRQAPGKEREFVAAISQRGTRTYYADSVKGRFTISRDNAKNTVYLQMNSLKPEDTAVYYCAARGWDQRSDYWGQGTQVIVSS = high polyreactivity
QVQLVESGGGLVQAGGSLRLSCAASGSILRQYAMGWYRPAPGKERELVAAINSGGSTNYADSVKGRITISRDNAKNTVYLQMNSLKPEDTAVYFCAADWSLYSHEFDYWGQGTQVTVSS = high polyreactivity

###

Experiment: yeast display, Sf9 membrane polyspecificity reagent, FACS + sequencing; frameworks hold sequencing errors
readout: polyreactivity (PSR sort gate)

QVQLVESGGGLVQAGGSLRLSCAASGRTFTGYTMGWYRQAPGKEREFVAAISSNGGRTYYADSVKGRFTISRDNAKNTVYIQMNSLKPEDTAVYYCAAPYTFWGQGTQVTVSS = high polyreactivity
QVQLVESGGGLVQAGGSLRLSCAASGGTLYTYAMGWYRQAPGKEWEFVAAITVSGGRTYYADSVKGRFPISRDNAKNTVYLQINSLKPEDTAVYYCAARYWSWRSFKVDYWGQGTQVTVSS = high polyreactivity
QVQLVESGGGLVQAGGSLRLSCAASGRTFDFYAMGWYRQAPGKERELVAAITFSTGSTTYADSVKGRFTISRDNAKNTVYLQMNSLKPEDTAVYYCGADGDGWWWSYVDRYDYWGQGTQVTVSS = low polyreactivity
QVQLVESGGGLVQAGGSLRLSCDASGLIFPWNSMGWYRQAPGQERELVAAINGRDGSTYYADSVKGRFTISRDNAKNTVYLQMNSLKPEDTAVFYCAKGPSGVRTYREYDSWGQGTQVTVSS = low polyreactivity

Query sequence follows.
Q: Report polyreactivity (PSR sort gate) for QVQLVESGGGLVQAGGSLRLSCAASGRILYAYTMGWYRQAPGKERELVATISRSGGNTYYADSVKGRFTISRDNAKNTVYLQMNSLKPEDTAVYYCAVGKYGTQRVKLYQYRYNYWGQGTQVTVSS
Ans: high polyreactivity

###

Assay: yeast display, Sf9 membrane polyspecificity reagent, FACS + sequencing; frameworks hold sequencing errors
readout: polyreactivity (PSR sort gate)

# annotated cases, reported polyreactivity (PSR sort gate) shown
QVQLVESGGGLVQAGGSLRLSCAASGSIFWGNAMGWYRPAPGKERELVASISDSGGSTYADSVKGRFTISRDNAKNTVYLQMNSLKPEDTAVYYCAADDWYSAGIRNWYYGGYDYWGQGTQVTVSS = low polyreactivity
QVQLVESGGGLDQAGGSLRLSCAAYGSTFAPNAMGGYRQSPGKERELVAAISSGSSTYYADSVKGRFTISRDNAKNTVNLQMNSLKPEDTAVYYCIARGLSSLSTIEDYCGQGTQVTVSS = high polyreactivity
QVQLVESWGGLVQAGGSLRLSCAASGFTFDNYPMGWYRQAPGKERELVAAIINSGGSTYYADSVKGRFTISRDNAKNTVYLQMNSLKPEDTAVYYCAARILPFRQWYRTYEYWGQGTQVTVSS = high polyreactivity
QVQLVESWGGLVQAGGSLPLSCAASGFTFVSYAMGWSRQAPGKERELVAAISKRGGSTSYADSVKGRFTISRDNAKNTVYLQMNSLKPEDTAVYYCYKRSYAWSPHVDYWGQGTQVTVSS = high polyreactivity
QVQLVESGGGLVQAGGSLRLSCAASGRIFSVYAMGWYRQAPGTERELVAVITTSGGSTYYADSVKGRFTISRGNAKNTVYLQMNSLKPEDTAVYYCNAEPWSYAIGSYEYWGQGTQVTVSS = high polyreactivity

Q: Please give measured polyreactivity (PSR sort gate) of the following entry: QVQLVESGGGLGQAGGSLRLSCAASGRTFTYNAMGWYRQAPGKERELVAAISYSGGRTYYADSVKGRFTISRDNAKNTVYLQMNSLKPEDTAVYYCARAYLGYYGRTYEYWGQGTQVTVSS
Ans: high polyreactivity

Q: Look up and state reported polyreactivity (PSR sort gate) for QVQLVESGGGLDQAGGSLRLSCAASVFIFAYYAMGWYRQAPGKERELVAAITRHGGSTYDADSVKGRFTISRDNAQNTVYLQMNSLKPEETAVYYCNAYFGWSASRQSYDYWGQGTQVTVSS
Ans: high polyreactivity

Q: Entry QVQLVESGGGLVQAGGSLRLSCAASGSILGDYAMGWDRQAPGKEREFVAAIDGSDGSTYYADSVKGRFTISRDNAKNTVYLQMNILKPEDTEVYYCAATDYDTYRSSWYVYWGQCTQVTVSS needs its polyreactivity (PSR sort gate) filled in; supply it.
Ans: low polyreactivity

Q: Please report the measured polyreactivity (PSR sort gate) for QVQLVESGGGLVKAGGSLRLSCAATGRIFEYNTMGWYRQAPGKERELVAAITGGTGSTYYADSVKGRFTISRDNAKNTVYLKMNSLKPEDTAVYYCAADYTSPAFYSSFDYWGQGTQVTVSS
Ans: low polyreactivity

Q: Tell me polyreactivity (PSR sort gate) reported for QVQLVESGGGLVQAGGSLRLSCAASGSIFRLNAMGWYRQAPGKERELVAAISRNTGRTYYADSVKGRFTISRDNAKNTVYLQMNSLKPEDTAVYYCAADRSPTGYVRVYYWGQGPQVTVSS
Ans: high polyreactivity

Q: Consider the sequence QVQHEESGGGLVQAGGSLRLSCAASGIIFYYYALGWYRQAPGKERELVAAITGTGSRTYYADSVKGRFTISRDNAKNTVYLQMNSLKPEDTAVYYCNARSFATGSKVPARGYWGHGTQVTVSS and give its recorded polyreactivity (PSR sort gate).
Ans: high polyreactivity
